Listing of entries alongside the reported cytotoxicity at 70.5 h.
# PROTOCOL_NOTES: Human HepG2 cell viability assay in 384 well format
# Assay type: toxicity, cell-based
# Parameters: dose 125 nL, time 70.5 hour; concentration not given beside the values
# TEST_CONDITIONS: HepG2 cells, read-out: Inhibition
REPORTED_ENDPOINT: cytotoxicity at 70.5 h (%)

MOLECULE: CCCOCC(=O)NS(=O)(=O)c1ccc2c(c1)OCCCO2
REPORTED_MEASUREMENT: 19.6
//
MOLECULE: COCC1c2c(cnn2CC2CC2)CCN1Cc1ccc(C)o1 (stereo unspecified)
REPORTED_MEASUREMENT: -8.01
//
MOLECULE: COc1ccc(F)c(-c2ncccc2NC(=O)C(C)C)c1
REPORTED_MEASUREMENT: 6.17
//
MOLECULE: COc1ccccc1OCCNC(=O)CN1CCN(C)CC1C (stereo unspecified)
REPORTED_MEASUREMENT: -2.58
//
MOLECULE: FC(F)(F)c1[nH]nc2c1CN(Cc1ccccc1)CC2
REPORTED_MEASUREMENT: -11.1
//
MOLECULE: Cc1cc(C2CCCN(S(=O)(=O)N(C)C)C2)ccn1 (stereo unspecified)
REPORTED_MEASUREMENT: 23.8

---

# PROTOCOL_NOTES: Human HepG2 cell viability assay in 384 well format
# Format: toxicity, cell-based
# Design: dose 125 nL, time 70.5 hour; concentration not given beside the values
# TEST_CONDITIONS: HepG2 cells, read-out: Inhibition
Listing of entries alongside the reported cytotoxicity at 70.5 h.
REPORTED_ENDPOINT: cytotoxicity at 70.5 h

MOLECULE: Cc1cc(-c2cnc(NCc3ccccn3)nc2C(C)C)on1
REPORTED_ENDPOINT: cytotoxicity at 70.5 h
REPORTED_MEASUREMENT: -11.7%
--
MOLECULE: CN(C)c1nc2sc(C(=O)N3CCN(C(=O)OC(C)(C)C)CC3)cc2s1
REPORTED_ENDPOINT: cytotoxicity at 70.5 h
REPORTED_MEASUREMENT: -8.07%
--
MOLECULE: Cc1cccc(C(=O)N2CCc3ncnc(C4CCOC4)c3CC2)n1 (configuration not stated)
REPORTED_ENDPOINT: cytotoxicity at 70.5 h
REPORTED_MEASUREMENT: -0.465%
--
MOLECULE: CCOc1ccccc1C(=O)N1CCCC(O)(CN(C)C)C1 (configuration not stated)
REPORTED_ENDPOINT: cytotoxicity at 70.5 h
REPORTED_MEASUREMENT: 11.6%
--
MOLECULE: CNc1cncc(C2CCN(C(=O)c3cnco3)CC2)n1
REPORTED_ENDPOINT: cytotoxicity at 70.5 h
REPORTED_MEASUREMENT: 9.47%
--
MOLECULE: Cc1ccc(CN(Cc2c[nH]cn2)C2CC(C)(C)NC(C)(C)C2)o1
REPORTED_ENDPOINT: cytotoxicity at 70.5 h
REPORTED_MEASUREMENT: -9.95%
--
MOLECULE: CN(C(=O)c1ccc(C#N)cc1)c1nnc(C2CCOC2)s1 (configuration not stated)
REPORTED_ENDPOINT: cytotoxicity at 70.5 h
REPORTED_MEASUREMENT: -6.28%
--
MOLECULE: CC(C)CN(Cc1nc2c(cnn2C)c(=O)[nH]1)CC(C)C
REPORTED_ENDPOINT: cytotoxicity at 70.5 h
REPORTED_MEASUREMENT: -5.64%
--
MOLECULE: Cc1nccn1-c1cccc(C2CCCN2S(=O)(=O)N(C)C)n1 (configuration not stated)
REPORTED_ENDPOINT: cytotoxicity at 70.5 h
REPORTED_MEASUREMENT: 2.07%
--
MOLECULE: O=C(NCCc1ccn(-c2ccccc2)n1)N1CCSCC1
REPORTED_ENDPOINT: cytotoxicity at 70.5 h
REPORTED_MEASUREMENT: 22.7%
--
MOLECULE: N#Cc1c(F)cccc1Nc1cnn(CC(=O)N2CCOCC2)c1
REPORTED_ENDPOINT: cytotoxicity at 70.5 h
REPORTED_MEASUREMENT: 39.8%
--
MOLECULE: CCn1cc(CN2CCCN(C(=O)CCSC)CC2)cn1
REPORTED_ENDPOINT: cytotoxicity at 70.5 h
REPORTED_MEASUREMENT: -1.89%

---

# PROTOCOL_NOTES: Human HepG2 cell viability assay in 384 well format
# Assay type: toxicity, cell-based
# Parameters: dose 125 nL, time 70.5 hour; concentration not given beside the values
# TEST_CONDITIONS: HepG2 cells, read-out: Inhibition
Listing of entries alongside the reported cytotoxicity at 70.5 h.
REPORTED_ENDPOINT: cytotoxicity at 70.5 h (%)

MOLECULE: COC(=O)N1CCCCC1C(=O)N1CCN(c2ncccc2C)CC1 (configuration not stated)
REPORTED_MEASUREMENT: -1.8

MOLECULE: CS(=O)(=O)CCNC(=O)N(Cc1ccoc1)C1CCCCC1
REPORTED_MEASUREMENT: -7.65

MOLECULE: CCCc1cc(C(=O)NC2CCCCNC2=O)[nH]n1 (configuration not stated)
REPORTED_MEASUREMENT: -5.95

MOLECULE: CC(NC(=O)CSCC(=O)Nc1ccccc1)c1ccccc1 (configuration not stated)
REPORTED_MEASUREMENT: -1.19

MOLECULE: CC1CCN(S(=O)(=O)NC(C)Cc2ccco2)CC1 (configuration not stated)
REPORTED_MEASUREMENT: -4.62

MOLECULE: COCC[C@]1(O)CCN(C(=O)CCc2cnn(C)c2)C[C@H]1C
REPORTED_MEASUREMENT: -7.34

MOLECULE: Cc1nccc(C(=O)N2CCCN(Cc3nccn3C(C)C)CC2)n1
REPORTED_MEASUREMENT: -4.19

MOLECULE: CCc1ccc(CNc2ccccc2CN2CCC(O)CC2)o1
REPORTED_MEASUREMENT: -9.23

MOLECULE: Cc1nc(-c2cccc(Cl)c2)n(CC(=O)NCC2CCCO2)c(=O)c1C (configuration not stated)
REPORTED_MEASUREMENT: 3.53

MOLECULE: COc1ccc(N2CCCC3(C2)CN(c2nncs2)CCO3)cc1 (configuration not stated)
REPORTED_MEASUREMENT: 1.09

MOLECULE: Cc1c(C(=O)N2CCCC2c2cnn(C)c2)cnn1-c1ccccc1 (configuration not stated)
REPORTED_MEASUREMENT: 17.9

MOLECULE: O=C(c1ccco1)N1CCCn2cnc(COCC3CC3)c2C1
REPORTED_MEASUREMENT: -7.39

---

Listing of entries alongside the reported cytotoxicity at 70.5 h.
# PROTOCOL_NOTES: Human HepG2 cell viability assay in 384 well format
# Assay type: toxicity, cell-based
# Design: dose 125 nL, time 70.5 hour; concentration not given beside the values
# TEST_CONDITIONS: HepG2 cells, read-out: Inhibition

MOLECULE: O=C(c1ccc(F)cc1Cl)N1CCC(Nc2cccnn2)CC1
cytotoxicity at 70.5 h: -7.6%
--
MOLECULE: CN(Cc1nnc(C2CC2)n1C)C1CCN(Cc2ccon2)C1 (stereo unspecified)
cytotoxicity at 70.5 h: -12.4%
--
MOLECULE: Cc1cccc2c1nc1n2[C@@H](CNC(=O)c2ccccn2)COC1
cytotoxicity at 70.5 h: -1.91%
--
MOLECULE: Cc1ncnc2c1CCN(Cc1cccs1)CC2
cytotoxicity at 70.5 h: 22.9%
--
MOLECULE: Cn1nccc1C1CCN(Cc2ccn(-c3ccccc3)n2)CC1
cytotoxicity at 70.5 h: -5.5%
--
MOLECULE: Cc1n[nH]c(CN2CCN(CC3CC3)[C@@H]3CS(=O)(=O)C[C@@H]32)n1
cytotoxicity at 70.5 h: 44.8%
